Test system: RXRa DBDmut IVT, anti-RXR (DBD mutation: RXRa K156A/R161A, NR concentration 90 nM)
Assay method text: PBM binding z-score (relative to random genomic background probes); higher = stronger binding; sequences stand for … in GC…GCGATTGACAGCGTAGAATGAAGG
Measured parameter: PBM binding z-score
Give bare numbers.

record_sequence=ACTTACGGATCAACGAGGTTATAGCACGCGTATA quantitative_readout=0.778

// for each sequence in input: emit PBM binding z-score
1. CGAACTAGGTCATCCAGGACAATGAATACATTGA
2. CCGGGTAGGTTATGGGGCATTCAGGCAACGGTGA
3. ATACCAAGGTGATCGTGGGGTCGTTGATACTAAC
4. TAGCCTAGGTCACTGGGCCAGTATAGTACGCATC

result:
[2.36, -1.46, 0.817, 0.296]

// for each sequence in input: emit PBM binding z-score
1. ATCTCTAGGTAACAAGTTTAGTGAAAGAGAGGAC
2. TGAATGAGGTTATAAGATCAGCGAACGTTGCAAA

result:
1. 0.0199
2. 0.409

###

Tested on: LXRb:RXRa (NR concentration 270 nM, RXRa partner concentration 90 nM)
Assay method text: PBM binding z-score (relative to random genomic background probes); higher = stronger binding; sequences stand for … in GC…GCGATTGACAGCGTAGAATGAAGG
Respond with t for PBM binding z-score values of 1 and above, f for values below.

// known answers, use as guide
record_sequence=GGAACGAGGCCAAAGTTGATAGCATCTGTCGACG qualitative_label=f
record_sequence=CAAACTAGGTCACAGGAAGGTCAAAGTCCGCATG qualitative_label=t
record_sequence=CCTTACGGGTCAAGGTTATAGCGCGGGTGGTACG qualitative_label=t
record_sequence=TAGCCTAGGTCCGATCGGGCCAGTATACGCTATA qualitative_label=f

query: Assess whether reported PBM binding z-score for TCATATAGGTAAAGGTGAAAGGCGAACGATATGA sits at 1 or higher.
result: t

query: Now give it for ATCTCTAGGTAACGAGTTCAGTGAAAGAGAGGAC too.
result: f

###

Test system: PPARg:RXRa 30nM:10nM, anti-RXR (NR concentration 30 nM, RXRa partner concentration 10 nM)
Assay method text: PBM binding z-score (relative to random genomic background probes); higher = stronger binding; sequences stand for … in GC…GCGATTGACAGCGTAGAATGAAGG
Respond with Y for PBM binding z-score values of 0.4 and above, N for values below.

// known answers, use as guide
record_sequence=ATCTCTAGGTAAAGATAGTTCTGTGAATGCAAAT qualitative_label=N
record_sequence=AGAATGAGGTTATTAATATCAGGGAATTGCGGTC qualitative_label=Y
record_sequence=TCGATTAGTTGAAGGGCAACCGACGAGTCCGTTT qualitative_label=Y
record_sequence=GCTGCTGGGTCAGGTTGGTCAGCTAACGGGTACG qualitative_label=N
record_sequence=ACTCGGAGGACAAAGGTCAAAGCTACGCCAGTGA qualitative_label=Y

query: Assess whether reported PBM binding z-score for CCTAGCAGGCCAGGGGCACTCAAGCATTTCGCTT sits at 0.4 or higher.
result: N

query: Now give it for CCTAGCAGGCCAGGGTCTCTCAAGCATTTCGCTT too.
result: N

query: Now give it for TAGCCTACGTCAGATCGGGCCAGTATACGCTATA too.
result: N

query: Now give it for CCTAGATGGTCAAGGTCACACACGCTATAGGTAC too.
result: Y

query: Now give it for AGAACGAGGGCACGCTGAGTTCATAGCAGAGTAG too.
result: N

query: Now give it for ACTAATAGTTGAGACGAGGGCAACCGATAGGTTG too.
result: N

query: Now give it for ATCTCTAGGTAAAAGTTCAGTCAATCCCGAGGAT too.
result: Y

Values were extracted from the supplement of paper PMC6555819.
